protocol summary: solvent given as SMILES
run conditions: in ClC(Cl)Cl
measured metric: emission maximum (nm)
Write down the numeric answer in nm and omit the unit.

Noted for CCCCCCCCN1c2ccc(C#Cc3ccc(C(F)(F)F)cc3)cc2Sc2cc(C=O)ccc21 : its emission maximum reads 535

The compound identified as CC1=[N+]2C(=C(c3c4ccccc4cc4ccccc34)c3ccc(/C=C/C(C)(C)C)n3[B-]2(F)F)C=C1 registered its emission maximum at 556

Recorded result, COc1ccc(N(c2ccc(OC)cc2)c2ccc(-c3ccc(C=C(C#N)C#N)o3)cc2)cc1 , emission maximum: 696

GET /value?item= CC(=O)OCCN1C(=O)c2cccc3c(Oc4ccc(C=O)cc4)ccc(c23)C1=O &field=emission maximum returns 411

// emission maximum lookup, compound = CC(=O)O[B-]1(OC(C)=O)OC(/C=C/c2ccc(C)cc2)=CC(/C=C/c2ccc(C)cc2)=[O+]1 , result: 491

response.value for COc1ccc(-c2cc(-c3ccc(N(C)C)cc3)nc(-c3ccccc3)n2)cc1 (field: emission maximum) = 453

For reference, reported emission maximum for CC(C)(C)c1ccc(-c2ccc(-c3c4c(nc5ccccc35)-c3cc5c(cc3CC4)-c3nc4ccccc4c(-c4ccc(-c6ccc(C(C)(C)C)cc6)cc4)c3CC5)cc2)cc1 stands at 388

Value of emission maximum reported for the compound N#Cc1nc2c3ccc(-n4c5ccccc5c5ccccc54)cc3c3cc(-n4c5ccccc5c5ccccc54)ccc3c2nc1C#N is 612.69

emission maximum for Cc1ccc(-c2cc(-c3ccccc3)c3c(N)nc(N4CCCC4)c(C#N)c3n2)cc1 is 510

# emission maximum of c1ccc2cc3cc(-c4cc(-c5nccs5)nc(-c5nccs5)c4)ccc3cc2c1 = 452

Just so you know, measured emission maximum for CN1C(=CC2=C([O-])C(=CC3=[N+](C)c4ccc(Cl)cc4C3(C)C)C2=O)C(C)(C)c2cc(Cl)ccc21 came out at 654
